- system.name: T1, 4H2473-AA
- T1 chain: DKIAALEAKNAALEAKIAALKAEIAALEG
- run.description: two-hybrid library CCmax;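 note: natural log of median RNA to DNA barcode read ratio; higher means stronger binding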
- run.conditions: mean of both orientations
So basically: interaction score at -1 or higher? That is T. Lower than -1? That is F.

{"binder": "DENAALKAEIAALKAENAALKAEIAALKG [4H1626-AA]", "assigned.category": "F"}
{"binder": "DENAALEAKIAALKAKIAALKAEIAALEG [4H1385-AA]", "assigned.category": "T"}
{"binder": "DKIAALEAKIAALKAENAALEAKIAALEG [4H2389-AA]", "assigned.category": "F"}
{"binder": "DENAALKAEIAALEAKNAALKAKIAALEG [4H1597-AA]", "assigned.category": "F"}

Shift focus to the following entry.
Is reported interaction score greater than or equal to -1 here: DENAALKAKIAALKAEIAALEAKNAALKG [4H1864-AA] F
